System: MALME-3M melanoma
Protocol Summary: NCI-60 one-dose screen, 48 h (100 = growth as untreated, 0 = no growth, -100 = all killed)
Experimental Parameters: 10 µM unless noted
Compounds without any hit were thinned out: in the full panel of roughly 83,000, 20% have a hit.
Assign growth to each entry below.
Answers are plain numbers, in %.

{"columns": ["Compound", "Assayed System", "growth [%]"],
 "data": [
  ["O=C(/C=C/c1ccc(Br)cc1)c1ccccc1", "MALME-3M melanoma", 104],
  ["C=CN(C)S(C)(=O)=O", "MALME-3M melanoma", 28.3]
]}

growth on MALME-3M melanoma for CCC(C)C1NC(=O)C(CC(C)C)NC(=O)C(C)NC(=O)C(C(C)C)NC(=O)C(CCCCN)NC(=O)C(CC(C)C)NC(=O)C(C(C)C)NC(=O)[C@H](C)NC(=O)C(C(C)CC)NC(=O)C(CCCN=C(N)N)NC(=O)C(CCCCN)NC(=O)C(CCCN=C(N)N)NC(=O)C(CCCCN)NC(=O)C([C@H](C)CC)NC(=O)C(CCCCN)NC1=O (stereo partly drawn) is 15.2
